Recorded values, source patent US20100130581A1.

test: Enzymatic stability study in homogenized Caco-2 cells; assay type: in vitro ADME; conditions: human, pH 7.4; Caco-2 cell homogenate, 37° C., 100 μM
Where a SMILES comes first, the peptide text is derived from it. [ ]: non-standard residue; d: D form. ξ: configuration not given here. ξAoc(2) = CCCCCCC(N)C(=O)O
assay.readout: half-life (min)
Give bare numbers, in min.

Ask: Retrieve half-life measured for CCCCCCC(N)C(=O)N[C@@H](Cc1ccc(O)cc1)C(=O)N1CCC[C@H]1C(=O)N[C@@H](Cc1c[nH]c2ccccc12)C(=O)N[C@@H](Cc1ccccc1)C(N)=O (stereo partly shown) [Compound 1] (H-[ξAoc(2)]YPWF-NH2) and print it.
Result: 25.5
